Values from patent US20120309739A1

Target: AKT3 (Homo sapiens, UniProt Q9Y243)
Sequence (Q9Y243 whole entry): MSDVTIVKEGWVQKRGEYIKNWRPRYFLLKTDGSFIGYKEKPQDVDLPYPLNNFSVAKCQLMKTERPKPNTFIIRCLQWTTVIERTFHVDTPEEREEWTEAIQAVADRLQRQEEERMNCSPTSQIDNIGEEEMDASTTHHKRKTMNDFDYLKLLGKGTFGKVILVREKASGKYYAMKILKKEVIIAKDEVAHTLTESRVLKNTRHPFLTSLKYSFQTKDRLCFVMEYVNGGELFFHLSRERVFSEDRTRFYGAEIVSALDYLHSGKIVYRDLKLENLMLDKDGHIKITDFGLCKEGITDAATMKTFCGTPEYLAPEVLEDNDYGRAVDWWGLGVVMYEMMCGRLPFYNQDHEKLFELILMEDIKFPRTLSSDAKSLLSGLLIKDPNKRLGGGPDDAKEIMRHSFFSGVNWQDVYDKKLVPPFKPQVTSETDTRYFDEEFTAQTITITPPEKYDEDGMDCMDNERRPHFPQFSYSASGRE
Assay: AKT Kinase Assay (IMAP fluorescent polarisation) vs AKT3
Conditions: activated AKT3, FAM Crosstide substrate
pIC50: −log10 of the molar value. Counter-ions that a name gives are not always drawn.
Reported pIC50 by item:

Answered examples (4):
Ask: # lookup: pIC50 of NC1(c2ccc(-c3oc4ncncc4c3-c3ccccc3)cc2)CCC1
Result: < 5.00

Ask: Record request: pIC50 value, item COc1nc(NCCN2CCN(C)CC2)nc2oc(-c3ccc(C4(N)CCC4)cc3)c(-c3ccccc3)c12
Result: 5.00 to 6.00

Ask: # input compound: NC1(c2ccc(-c3oc4nc(NCCO)nc(OCCF)c4c3-c3ccccc3)cc2)CCC1 ; wanted: its pIC50
Result: 5.00 to 6.00

Ask: Which measured pIC50 value corresponds to NC1(c2ccc(-c3oc4ccncc4c3-c3ccccc3)cc2)CCC1 ?
Result: 5.00 to 6.00

Further cases:
Ask: Reported pIC50, compound Cn1c(C2CC2)nc2oc(-c3ccc(C4(N)CCC4)cc3)c(-c3ccccc3)c2c1=O : ____
Result: < 5.00

Ask: Reported pIC50 for NC1(c2ccc(-c3oc4nc(NCCO)n(CCF)c(=O)c4c3-c3ccccc3)cc2)CCC1 : what is it?
Result: 5.00 to 6.00

Ask: Name the reported pIC50 value associated with the compound Cc1nc(NCCO)nc2oc(-c3ccc(C4(N)CCC4)cc3)c(-c3ccccc3)c12
Result: 5.00 to 6.00

Ask: I would be grateful if you could share the reported pIC50 for CSc1nc2oc(-c3ccc(C4(N)CCC4)cc3)c(-c3ccccc3)c2c(=O)[nH]1 .
Result: 5.00 to 6.00

Ask: I am curious: what pIC50 value has been reported for COc1nc(N2CCCCC2)nc2oc(-c3ccc(C4(N)CCC4)cc3)c(-c3ccccc3)c12 ?
Result: < 5.00

Ask: Query: pIC50; subject: CSc1nc2oc(-c3ccc(C4(N)CCC4)cc3)c(-c3ccccc3)c2c(=O)n1CC(N)=O
Result: < 5.00

Ask: Which pIC50 is listed for NC1(c2ccc(-c3oc4ncn(CC(F)(F)F)c(=O)c4c3-c3ccccc3)cc2)CCC1 [Example 106, HCl] ?
Result: 5.00 to 6.00

Ask: Entry COc1nc(OCCO)nc2oc(-c3ccc(C4(N)CCC4)cc3)c(-c3ccccc3)c12 has what pIC50?
Result: < 5.00

Ask: I would be grateful if you could share the reported pIC50 for N#Cc1ccc2c(-c3ccccc3)c(-c3ccc(C4(N)CCC4)cc3)oc2c1 .
Result: < 5.00

Ask: Tell me the measured pIC50 of NC1(c2ccc(-c3oc4ccnc(-c5cn[nH]c5)c4c3-c3ccccc3)cc2)CCC1 , please.
Result: < 5.00

Ask: Please report the recorded pIC50 for COc1nc(OC)c2c(-c3ccccc3)c(-c3ccc(C4(N)CCC4)cc3)oc2n1 .
Result: < 5.00

Ask: What value of measured pIC50 is listed for COc1nc(NCCN(C)C)nc2oc(-c3ccc(C4(N)CCC4)cc3)c(-c3ccccc3)c12 ?
Result: 5.00 to 6.00

Ask: Fill in: pIC50 of Cn1c(=O)c2c(-c3ccccc3)c(-c3ccc(C4(N)CCC4)cc3)oc2n(C)c1=O is ___
Result: < 5.00
